Measured values drawn from patent US20240279302A1 for this set.

Target: consensus OR2T11 (Homo sapiens)
Construct: fused on or other part: N-terminal Flag-Rho tag from the pME18S vector
Sequence (Q8NH01 whole entry, looked up, the tested form may be a part): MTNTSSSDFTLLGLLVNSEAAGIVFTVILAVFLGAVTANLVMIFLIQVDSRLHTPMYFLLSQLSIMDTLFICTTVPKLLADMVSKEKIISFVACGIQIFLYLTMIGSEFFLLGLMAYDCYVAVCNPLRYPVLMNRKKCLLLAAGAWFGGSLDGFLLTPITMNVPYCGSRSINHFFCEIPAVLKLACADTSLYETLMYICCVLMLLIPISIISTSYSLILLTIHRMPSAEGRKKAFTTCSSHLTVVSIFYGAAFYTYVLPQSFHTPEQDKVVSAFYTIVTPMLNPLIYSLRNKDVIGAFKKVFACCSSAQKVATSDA
Test: Luciferase assay, sulfur compounds
Type: cell-based
Conditions: consensus OR2T11; 30 μM CuCl2; read-out: EC50(μM) with 30 μM CuCl2
VALUE KIND: EC50 (µM)
Write the answer as a number in µM, unit excluded.

Find the measured EC50 of CSSSC [dimethyl trisulfide] with consensus OR2T11 (Homo sapiens) as test system.
26

###

Target: OR4S2 (original olfactory receptor) (Homo sapiens)
Construct: expressed in transfected cells; host or cells: HEK293
Sequence (Q8NH73 whole entry): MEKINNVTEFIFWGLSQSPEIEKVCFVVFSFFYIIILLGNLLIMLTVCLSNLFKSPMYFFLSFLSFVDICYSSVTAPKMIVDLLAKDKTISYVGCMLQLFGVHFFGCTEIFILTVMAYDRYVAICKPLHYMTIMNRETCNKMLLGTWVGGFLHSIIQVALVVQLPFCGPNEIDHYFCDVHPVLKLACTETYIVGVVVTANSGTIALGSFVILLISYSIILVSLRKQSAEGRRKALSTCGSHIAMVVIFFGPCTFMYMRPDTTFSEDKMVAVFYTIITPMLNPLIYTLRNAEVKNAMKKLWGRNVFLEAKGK
Assay: Luciferase assay, sulfur compounds
Assay type: cell-based
VALUE KIND: EC50 (µM)
Write the answer as a number in µM, unit excluded.

State its EC50: CSSC [dimethyl disulfide]
530
